What apparent KD of MS2 coat protein was measured for each of the following?
# Test system: MS2 coat protein
# TEST: apparent KD of MS2 coat protein; designed switch direction (-1 OFF switch, 1 ON switch): 1; higher = weaker reporter binding
# STATED CONDITIONS: input ligand: none
Write down the value, and be sure its unit follows.

Q: State measured apparent KD of MS2 coat protein of the sequence AAGGGAUGAGCGUAGGAUAUAGGAGAAGUGACAUGAGGAUCACCCAUGUAAAAGGAGGGAUGAGACUAGAAGGACGAGGUAGGAG [JR_SS2_Sub059] (Eterna round: R96, puzzle: Same State 2) with MS2 coat protein.
A: 78.3 nM

Q: State measured apparent KD of MS2 coat protein of the sequence GGAGCCGGCCUAGGAUAUUUCAUAUAAAUACAUGAGGAUCACCCAUGUAGGCCAGAAGGCCUUGGGAAGAAGGAGGUCGGCUCC [Loop Effect - U25,U29] (Eterna round: R96, puzzle: Same State NG 2) with MS2 coat protein.
A: 31.5 nM

Q: State measured apparent KD of MS2 coat protein of the sequence GUUGAGAAAUGAGGAUAUGCAUGGAAGACACAUGAGGAUCACCCAUGUGGGAGGGAAACCAGGAGGUAGAAGGCAUUGGGAAAC [AK SSNG2-V2-24] (Eterna round: R96, puzzle: Same State NG 2) with MS2 coat protein.
A: 55.1 nM

Q: State measured apparent KD of MS2 coat protein of the sequence GGAAUAUUUACAGGAUAUGAGUUGUAAAGUCGAUCAGAAGGGUAGGUGUCUUGCACGGUGUGUUACAUGAGGAUCACCCAUGUU [SameState NG1 #21] (Eterna round: R96, puzzle: Same State NG 1) with MS2 coat protein.
A: 128 nM

Q: State measured apparent KD of MS2 coat protein of the sequence ACAUGAGGAUCACCCAUGUAUGCUCAGGAAACUGUGCAACGUGAGGAUAUGGAUCCUAAUUGGAUCCAGAAGGCAUGAAUUAUU [Fiskers NG3ss - 23] (Eterna round: R96, puzzle: Same State NG 3) with MS2 coat protein.
A: 418 nM

These measurements were taken from the supplement of paper PMC9170038.
